- targetEntity: LILRB2 antigen of the ELISA of Table 5 (format not specified) (UniProt Q8N423 22-460, limits assumed)
- Sequence (Q8N423 22-460 limits assumed): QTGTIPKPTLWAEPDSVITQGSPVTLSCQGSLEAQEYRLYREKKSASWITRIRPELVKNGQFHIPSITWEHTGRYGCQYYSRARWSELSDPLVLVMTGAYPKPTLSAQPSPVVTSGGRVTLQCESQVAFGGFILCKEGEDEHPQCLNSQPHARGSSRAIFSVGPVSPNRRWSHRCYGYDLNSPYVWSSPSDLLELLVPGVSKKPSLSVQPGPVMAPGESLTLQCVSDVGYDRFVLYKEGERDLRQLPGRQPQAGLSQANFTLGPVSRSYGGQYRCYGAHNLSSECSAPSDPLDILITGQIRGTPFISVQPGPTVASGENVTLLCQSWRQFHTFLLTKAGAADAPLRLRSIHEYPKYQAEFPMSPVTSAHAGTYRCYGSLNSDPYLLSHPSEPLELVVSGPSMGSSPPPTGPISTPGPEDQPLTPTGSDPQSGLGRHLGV
- protocolDetails: ELISA, antibody titration
quantityKind: Kd (nM)
Respond with the bare value in nM.

- binder: "Antibody 14F1 (antibody, V domains shown, Mouse hybridoma mAb purified from ascites) VH: QVQLKESGPGLVAPSQSLSITCTVSGFSLTTYGVHWVRQPPGKGLEWLGVIWTGGSTNYNSALMSRLSIIKDNSKSQVFLKMNSLQTDDTAIYYCARGGYGHTMDYWGQGTSVTVSS VL: DIVMTQSHKFMSTSVGDRVSITCKASQDVSIAVAWYQQKPGQFPKLLIYSASYRYTGVPDRFTGGGSGTDFTFTISSVQAEDLAVYYCQQHYSTPFTFGSGTKLEIK"
  Kd / nM: 1.24
- binder: "Antibody 4A9 (antibody, V domains shown, Mouse hybridoma mAb purified from ascites) VH: EIQLQQSGPELVKPGASVKVSCKASGSSFTDYNMYWVKQIHGKSLDWIGYIDPYNGRTTYNQKFKGKATLTVDKSSSTAFMHLNSLTSEDSAVYYCAGGDYFDYWGHGTSLTVSS VL: EIQMTQTTSSLSASLGDRVTISCSASQGISNYLNWFQQKPDGTVKLLIYYTSTLHSGVPSRFSGSGSGTDFSLTISNLDPEDFATYYCQQYSNLPYTFGGGTKLEIK"
  Kd / nM: 0.216
- binder: "Antibody 6H8 (antibody, V domains shown, Mouse hybridoma mAb purified from ascites) VH: QIQLVQSGPELKKPGETVRISCKASGYTFTNYGMNWVKQAPGKGLKWMGWINTYTGEPTYADDFRGRFALSLEPSASTASLQINNLKNEDTATYFCARYYDYDYFDYWGQGTTLTVSS VL: DIVMTQSPSSLRVSAGEKVTMSCKSSQSLLNGGNQKNYLAWYQQKPGQPPKVLIYGASTRVSGVPDRFTGRGSGIDFTLTISSVEAEDLAVYYCQNDLSYPLTFGAGTKLELK"
  Kd / nM: 5.7

// moving on: another record for Kd
Look up and report measured Kd for this entry: Antibody 8A4 (antibody, V domains shown, Mouse hybridoma mAb purified from ascites) VH: QVQLKESGPGLVAPSQSLSITCTVSGFSLTDYGVNWVRQPPGKGLEWLGMIWGDGNTDYNSALKSRLSISKVNSKSQVFLKMNSLQTDDTARYYCARSSYRYDENIYYYAMDYWGQGTSVTVSS VL: DIVMTQSPSSLTVTAGEEVTLSCKSSQSLLNSGIQKNYLTWYQQKPGQPPKLLIYWASTRESGVPDRFTGSVSGTDFTLTISSVQAEDLAVYYCQNDYSLPFTFGSGTKLEIK
0.493
